B1: STX5 (parent)
chain: RSEFTLMAKRIGKDLSNTFAKLEK

variants of: B1; assay: protein stability index of a GFP-peptide fusion (GPS, HEK-293T) (PSI 1-6); higher = more stable; conditions: c terminus: a fixed tail appended;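 further: lentivirally expressed fusions sorted by FACS into six bins by GFP to DsRed ratio, PSI derived from sequencing read proportions per bin multiplied by bin number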
protein stability index listing for selected variants.
Please reply with the value in numeric form only.

Sample answers from the record:
[[record]]
residue_string = "RSEFTLMAKRIGKDLSNTFAKLEM [K24M]"
attribute_measured = "protein stability index"
recorded_result = 3.26

[[record]]
residue_string = "RSEFTLMAKRIGKDLSNTFAKGEK [L22G]"
attribute_measured = "protein stability index"
recorded_result = 3.27

[[record]]
residue_string = "RSEFTLMAKRIGSDLSNTFAKLEK [K13S]"
attribute_measured = "protein stability index"
recorded_result = 2.55

[[record]]
residue_string = "RSEFTQMAKRIGKDLSNTFAKLEK [L6Q]"
attribute_measured = "protein stability index"
recorded_result = 2.23

[[record]]
residue_string = "RSEFTLMAKRIGKDLSNTFAKLHK [E23H]"
attribute_measured = "protein stability index"
recorded_result = 3.8

[[record]]
residue_string = "RSEFTLMAKRIGKSLSNTFAKLEK [D14S]"
attribute_measured = "protein stability index"
recorded_result = 2.13

[[record]]
residue_string = "RSEFTLMAKRKGKDLSNTFAKLEK [I11K]"
attribute_measured = "protein stability index"
recorded_result = 2.93

[[record]]
residue_string = "RSEFTLMAKRIGKDLSATFAKLEK [N17A]"
attribute_measured = "protein stability index"
recorded_result = 3.04


Form field: reported protein stability index of RSEFTLMAKSIGKDLSNTFAKLEK [R10S] 2.11

For the variant shown here, RSEFTLMAKRIGKDLSCTFAKLEK [N17C] , give the reported protein stability index. 2.02
